- Test system: Namalwa
- measurementNotes: Growth inhibition of cell lines treated with 2X-121
- Assay type: cell-based
- conditionSummary: cell line Namalwa, origin Burkitts lymphoma; read-out: Measured growth inhibition IC50
measuredParameter: IC50 (µM)

INSERT INTO assay_data (compound, measuredon, recordedvalue) VALUES
  ('O=c1[nH]nc2c3c(cccc13)N=C(CN1Cc3ccccc3C1)N2 [2X-121]', 'Namalwa', 2.5);

====

- Test system: HCC1806
- measurementNotes: Growth inhibition of cell lines treated with 2X-121
- Type: cell-based
- conditionSummary: Homo sapiens; cell line HCC1806, origin Breast; read-out: Measured growth inhibition IC50
measuredParameter: IC50 (nM)

INSERT INTO assay_data (molecule, measuredon, recordedvalue) VALUES
  ('O=c1[nH]nc2c3c(cccc13)N=C(CN1Cc3ccccc3C1)N2 [2X-121]', 'HCC1806', 1800);

meta.source: patent US12668845B2
